B1: KLHL14 (parent)
chain: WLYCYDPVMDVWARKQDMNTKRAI

- Variants of: B1
- ASSAY PROTOCOL: protein stability index of a GFP-peptide fusion (GPS, HEK-293T) (PSI 1-6); higher = more stable;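 further: lentivirally expressed fusions sorted by FACS into six bins by GFP to DsRed ratio, PSI derived from sequencing read proportions per bin multiplied by bin number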
- MEASUREMENT CONDITIONS: c terminus: a fixed tail appended
Parameter threshold = 2. Response is TRUE when protein stability index meets or exceeds it, else FALSE.

Please indicate if the recorded protein stability index for M9F meets or exceeds 2.
FALSE

Does P7E have a reported protein stability index of at least 2?
FALSE

Entry T20I : is its protein stability index no less than 2?
FALSE

Please tell me: is the variant L2N at or over 2 in terms of protein stability index?
TRUE

Does the reported protein stability index for Q16K fall at or above the 2 mark?
FALSE

Answer whether protein stability index of R22N is greater than or equal to 2.
FALSE

Assess whether reported protein stability index for D17W sits at 2 or higher.
TRUE

Please check the record I24M and state if its protein stability index is at or above 2.
TRUE

Is protein stability index at least 2? Consider T20H
FALSE

Could you please find out whether L2R has protein stability index that meets 2 or exceeds it?
TRUE

Threshold query (protein stability index >= 2) on Y5F
TRUE

Quick check: does D6K have protein stability index greater than or equal to 2?
TRUE

Would you say I24A shows protein stability index at minimum 2?
TRUE

hey, is protein stability index for this one >= 2? K15T
FALSE

hey, is protein stability index for this one >= 2? D6R
FALSE

In plain terms: is recorded protein stability index at least 2 for Y5M ?
FALSE

Dear colleague, could you confirm whether K21F has protein stability index at or above 2?
FALSE

Hello, I need to know if W1I has measured protein stability index not below 2. Thanks!
FALSE

Hi, just wondering whether V11Y shows protein stability index of 2 or higher.
FALSE

Could you verify whether the entry M9N shows protein stability index of no less than 2?
TRUE
